The values you see were collected from the supplement of paper PMC9262897.

- System: E. coli TESEC Mtb DapB
- experiment: growth (OD600 after 10 h); higher = more growth (less inhibition)
- applied-conditions: arabinose induction (level): High; compound 0.1 mM; raw OD600 reference: median of DMSO wells […], cell-free background 0.041
Structures can show the parent of a compound that is named as a salt.

# molecule, growth
rows = [
    ("O=C1C(CC[S+]([O-])c2ccccc2)C(=O)N(c2ccccc2)N1c1ccccc1 (configuration not stated) [Sulfinpyrazone]", 0.182),
    ("CN1CCCC(CC2c3ccccc3Sc3ccccc32)C1 (configuration not stated) [Metixene hydrochloride]", 0.135),
    ("CC(C)NCC(O)COc1ccc(CCOCC2CC2)cc1 (configuration not stated) [Betaxolol hydrochloride]", 0.235),
    ("CC(C)NCC(O)c1ccc2ccccc2c1 (configuration not stated) [Pronethalol hydrochloride]", 0.194),
    ("NCCCC(O)(P(=O)(O)O)P(=O)(O)O [Alendronate sodium]", 0.214),
    ("C#CCN[C@@H]1CCc2ccccc21 [Rasagiline]", 0.186),
    ("CC(C)(C)C(=O)OCOC(=O)[C@@H]1N2C(=O)[C@@H](NC(=O)[C@H](N)c3ccccc3)[C@H]2SC1(C)C [Pivampicillin]", 0.216),
    ("CC1(C)S[C@@H]2[C@H](NC(=O)[C@H](N)c3ccccc3)C(=O)N2[C@H]1C(=O)O [Ampicillin trihydrate]", 0.205),
    ("CCN(CC)CCOC(=O)C(c1ccccc1)C1CCCCC1 (configuration not stated) [Drofenine hydrochloride]", 0.156),
    ("CCCCC1C(=O)N(c2ccccc2)N(c2ccccc2)C1=O [Phenylbutazone]", 0.141),
    ("Nc1nc(Cl)nc2c1ncn2[C@H]1C[C@H](O)[C@@H](CO)O1 [Cladribine]", 0.244),
    ("COc1ccc(-c2cc(=S)ss2)cc1 [Anethole-trithione]", 0.193),
    ("C[C@H]1O[C@@H](O[C@H]2[C@@H](O)C[C@H](O[C@H]3[C@@H](O)C[C@H](O[C@H]4CC[C@@]5(C)[C@H](CC[C@@H]6[C@@H]5C[C@@H](O)[C@]5(C)[C@@H](C7=CC(=O)OC7)CC[C@]65O)C4)O[C@@H]3C)O[C@@H]2C)C[C@H](O)[C@@H]1O [Digoxin]", 0.196),
    ("O=C(NCC(O)CO)c1c(I)c(C(=O)NCC(O)CO)c(I)c(N(CCO)C(=O)CO)c1I (configuration not stated) [Ioversol]", 0.202),
    ("CCCc1ncc(C[n+]2ccccc2C)c(N)n1 [Amprolium hydrochloride]", 0.187),
    ("CCCN(CCC)CCc1cccc2c1CC(=O)N2 [Ropinirole HCl]", 0.198),
    ("COc1ccc(NS(=O)(=O)c2ccc(N)cc2)nn1 [Sulfamethoxypyridazine]", 0.203),
]
